# Test system: RAW264.7
# ASSAY PROTOCOL: Antiosteoporotic activity in mouse RAW264.7 cells assessed as inhibition of RANKL-stimulated osteoclastogenesis by TRAP assay
# Type: functional, cell-based
pIC50 values by entry
Please treat pIC50 as minus the base-10 logarithm of the molar concentration.

Examples with answers:
GET /values?readout=pIC50&item= COc1ccc(-c2coc3cc(OCC4CO4)ccc3c2=O)cc1OC (stereo not given)
6.25

// next record O=c1cc(-c2ccccc2)oc2cc(O)c(O)c(O)c12 [BAICALEIN]
4.89

Further, for COc1ccc2c(=O)c(-c3ccc(OCC(O)CNC4CC4)cc3)coc2c1 (stereo not given) ?
5.31

Record: COc1ccc(-c2coc3cc(OCC(O)CNC4CCCCC4)ccc3c2=O)cc1OC (stereo not given)
5.38

In the following, a different compound is considered.
Which pIC50 reading was recorded for the compound COc1ccc2c(=O)c(-c3ccc(OCC4CO4)cc3)coc2c1 (stereo not given) ?
5.19
